Target: human LPA1 (Homo sapiens)
Experiment: LPA1 functional antagonist assay (calcium flux)
Conditions: CHO cells overexpressing human LPA1; inhibition of calcium flux induced by 10 nM LPA; read-out: hLPA1 IC50
measurementName: IC50 (nM)

I. CCOc1ccnc(Nc2c(-c3ccc(O[C@H]4CCC[C@H](C(=O)O)C4)c(C)n3)nnn2C)n1 [Example 229]
II. Cc1nc(-c2nnn(C)c2CNc2nc(C(N)=O)cc(C3CCC3)n2)ccc1O[C@H]1CCC[C@H](C(=O)O)C1 [Example 165]
III. CCc1ccnc(OCc2c(-c3ccc(O[C@H]4CCC[C@H](C(=O)O)C4)c(C)n3)nnn2C)n1 [Example 301]
rank_up(items): orders items by reported IC50 in ascending numerical order. Return the labels ranked in the requested order, please.
III, I, II
(III: 7.9 nM, I: 165 nM, II: 243 nM)

---

Biological target: human LPA1 (Homo sapiens, UniProt Q92633)
Sequence (Q92633 whole entry): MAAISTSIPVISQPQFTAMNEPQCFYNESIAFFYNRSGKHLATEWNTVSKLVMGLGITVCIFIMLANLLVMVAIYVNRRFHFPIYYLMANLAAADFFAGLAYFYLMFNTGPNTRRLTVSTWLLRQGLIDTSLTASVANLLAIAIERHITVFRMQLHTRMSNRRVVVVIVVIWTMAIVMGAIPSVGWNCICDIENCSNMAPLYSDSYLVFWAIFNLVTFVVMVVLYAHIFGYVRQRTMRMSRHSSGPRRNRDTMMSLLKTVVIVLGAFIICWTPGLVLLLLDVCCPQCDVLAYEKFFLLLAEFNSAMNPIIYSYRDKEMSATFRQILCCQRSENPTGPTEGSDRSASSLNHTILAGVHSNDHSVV
Experiment: LPA1 functional antagonist assay (calcium flux)
Conditions: CHO cells overexpressing human LPA1; inhibition of calcium flux induced by 10 nM LPA; read-out: hLPA1 IC50
pIC50: −log10 of the molar value.
measurementName: pIC50

1. Cc1nc(-c2nnn(C)c2CNc2cc(Oc3ccccc3)ccn2)ccc1O[C@H]1CCC[C@H](C(=O)O)C1
2. Cc1nc(-c2nnn(C)c2CNc2nc(OC(C)C)cc(OC(C)C)n2)ccc1O[C@H]1CCC[C@H](C(=O)O)C1
3. Cc1nc(-c2nnn(C)c2CNc2nc(-c3cccs3)nc(-c3cccs3)n2)ccc1O[C@H]1CCC[C@H](C(=O)O)C1
rank_up(items): orders items by reported pIC50 in ascending numerical order. Return the labels ranked in the requested order, please.
3, 2, 1
(3: 5.89, 2: 6.42, 1: 7.17)

1. Cc1nc(-c2nnn(C)c2CNc2nccc(C(F)(F)F)n2)ccc1O[C@H]1CCC[C@H](C(=O)O)C1
2. Cc1nc(-c2nnn(C)c2COc2nccc(-c3cnccn3)n2)ccc1O[C@H]1CCC[C@H](C(=O)O)C1
Which record shows the lower pIC50: the first, 1 , or the second, 2 ? Bench note: the answer is the label of the chosen record.
2
(2: 6.58, 1: 7.18)

1. Cc1cc(-c2ccccn2)nc(NCc2c(-c3ccc(O[C@H]4CCC[C@H](C(=O)O)C4)cn3)nnn2C)n1
2. CCc1cc(OCc2c(-c3ccc(O[C@H]4CCC[C@H](C(=O)O)C4)cn3)nnn2C)ncn1
Return label of the item with the larger pIC50. Candidates: 1 , 2 . Bench note: the answer is the label of the chosen record.
2

---

Biological target: human LPA1 (Homo sapiens, UniProt Q92633)
Construct: expressed in transfected cells; host or cells: Chinese hamster ovary (CHO) cells
Assay: LPA1 functional antagonist assay (calcium flux)
Format: cell-based
Conditions: CHO cells overexpressing human LPA1; inhibition of calcium flux induced by 10 nM LPA; read-out: hLPA1 IC50
measurementName: IC50 (nM)

INSERT INTO measurements (compound, targetofassay, recordedvalue) VALUES
  ('Cc1nc(-c2nnn(C)c2Nc2ccnc(OCC3CC3)n2)ccc1O[C@H]1CCC[C@H](C(=O)O)C1 [Example 233]', 'human LPA1 (Homo sapiens, UniProt Q92633)', 392),
  ('CCC1(c2ccnc(NCc3c(-c4ccc(O[C@H]5CCC[C@H](C(=O)O)C5)c(C)n4)nnn3C)n2)CC1 [Example 148]', 'human LPA1 (Homo sapiens, UniProt Q92633)', 70),
  ('CCCOc1ccnc(NCc2c(-c3ccc(O[C@H]4CCC[C@H](C(=O)O)C4)c(C#N)n3)nnn2C)n1 [Example 408]', 'human LPA1 (Homo sapiens, UniProt Q92633)', 22);

I. Cc1nc(-c2nnn(C)c2CNc2nccc(-n3cccn3)n2)ccc1O[C@H]1CCC[C@H](C(=O)O)C1 [Example 326]
II. CCc1ccnc(OCc2c(-c3ccc(O[C@H]4CCC[C@H](C(=O)O)C4)c(C)n3)nnn2C)c1 [Example 280]
Return label of the item with the larger IC50. Candidates: I , II . Bench note: the answer is the label of the chosen record.
I
(I: 99 nM, II: 15.3 nM)

P. Cc1nc(-c2nnn(C)c2CNc2ncnc(C(C)(C)C)n2)ccc1O[C@H]1CCC[C@H](C(=O)O)C1 [Example 182]
Q. Cc1nc(-c2nnn(C)c2COc2cc(-n3cncn3)ncn2)ccc1O[C@H]1CCC[C@H](C(=O)O)C1 [Example 357]
R. COC(C)(C)c1ccnc(NCc2c(-c3ccc(O[C@H]4CCC[C@H](C(=O)O)C4)c(C)n3)nnn2C)n1 [Example 122]
S. CCNc1nc(NCc2c(-c3ccc(O[C@H]4CCC[C@H](C(=O)O)C4)c(C)n3)nnn2C)ncc1F [Example 58]
T. Cc1nc(-c2nnn(C)c2CNc2nccc(COC3CC3)n2)ccc1O[C@H]1CCC[C@H](C(=O)O)C1 [Example 322]
Provide the items ranked by increasing IC50. Return the labels ranked in the requested order, please.
T, S, Q, P, R
(T: 44 nM, S: 82 nM, Q: 120 nM, P: 693 nM, R: 1130 nM)

a. Cc1nc(-c2nnn(C)c2COc2cc(C(F)(F)F)nc(N3CCCC3)n2)ccc1O[C@H]1CCC[C@H](C(=O)O)C1 [Example 354]
b. Cc1nc(-c2nnn(C)c2CNc2nc(C#N)cc(C3CCC3)n2)ccc1O[C@H]1CCC[C@H](C(=O)O)C1 [Example 164]
Which record shows the lower IC50: the first, a , or the second, b ? Bench note: the answer is the label of the chosen record.
b

P. CCC(C)c1nc(O)nc(NCc2c(-c3ccc(O[C@H]4CCC[C@H](C(=O)O)C4)c(C)n3)nnn2C)n1 (mixture of isomers) [Example 198]
Q. CCc1ccnc(OCc2c(-c3ccc(O[C@H]4CCC[C@H](C(=O)O)C4)cn3)nnn2C)n1 [Example 347]
R. C=CCCc1ccnc(NCc2c(-c3ccc(O[C@H]4CCC[C@H](C(=O)O)C4)c(C)n3)nnn2C)n1 [Example 260]
Sequence the entries by IC50, beginning with the highest number. Return the labels ranked in the requested order, please.
P, Q, R
